# Tested on: 997726-040-R-J2-PDC tumor spheroids, viability
# protocol: Anticancer human tumor 997726-040-R-J2-PDC patient-derived squamous cell lung carcinoma cell line growth inhibition [PI3K]
# condition_notes: curve of first compound; second compound 0.0316 µM; spheroids with HUVEC and MSC
pIC50: −log10 of the molar value.
Catalogue of pIC50 readings, one per entry.
test_readout: pIC50

>  <molecule>
Cn1cnc2c(F)c(Nc3ccc(Br)cc3Cl)c(C(=O)NOCCO)cc21 + Cc1nc(NC(=O)N2CCCC2C(N)=O)sc1-c1ccnc(C(C)(C)C(F)(F)F)c1

>  <test_readout>
pIC50

>  <result>
6.89

$$$$
>  <molecule>
CC(=O)c1c(C)c2cnc(Nc3ccc(N4CCNCC4)cn3)nc2n(C2CCCC2)c1=O + COc1c(OCCCN2CCOCC2)ccc2c3n(c(=NC(=O)c4cnc(N)nc4)nc12)CCN3

>  <test_readout>
pIC50

>  <result>
> 9.50

$$$$
>  <molecule>
C[C@@H](NC(=O)c1ncnc(N)c1Cl)c1ncc(C(=O)Nc2cc(C(F)(F)F)c(Cl)cn2)s1 + COc1c(OCCCN2CCOCC2)ccc2c3n(c(=NC(=O)c4cnc(N)nc4)nc12)CCN3

>  <test_readout>
pIC50

>  <result>
> 7.50

$$$$
>  <molecule>
CC(Cn1ccc(-c2ccc(C#N)c(Cl)c2)n1)NC(=O)c1cc(C(C)O)[nH]n1 (stereo unspecified) + CC(Nc1ccc2c(c1)OCCn1cc(N3C(=O)OCC3C(F)F)nc1-2)C(N)=O

>  <test_readout>
pIC50

>  <result>
< 5.00

$$$$
>  <molecule>
C=CC(=O)N1CCN(c2nc(=O)n(-c3c(C)ccnc3C(C)C)c3nc(-c4c(O)cccc4F)c(F)cc23)C(C)C1 (stereo unspecified) + CC(Nc1ccc2c(c1)OCCn1cc(N3C(=O)OCC3C(F)F)nc1-2)C(N)=O

>  <test_readout>
pIC50

>  <result>
< 5.00

$$$$
>  <molecule>
CCCS(=O)(=O)Nc1ccc(F)c(C(=O)c2c[nH]c3ncc(-c4ccc(Cl)cc4)cc23)c1F + Cc1nc(NC(=O)N2CCCC2C(N)=O)sc1-c1ccnc(C(C)(C)C(F)(F)F)c1

>  <test_readout>
pIC50

>  <result>
5.16

$$$$
>  <molecule>
CC1(C)CCC(CN2CCN(c3ccc(C(=O)NS(=O)(=O)c4ccc(NCC5CCOCC5)c([N+](=O)[O-])c4)c(Oc4cnc5[nH]ccc5c4)c3)CC2)=C(c2ccc(Cl)cc2)C1 + Cc1nc(NC(=O)N2CCCC2C(N)=O)sc1-c1ccnc(C(C)(C)C(F)(F)F)c1

>  <test_readout>
pIC50

>  <result>
5.21

$$$$
>  <molecule>
CC(=O)c1c(C)c2cnc(Nc3ccc(N4CCNCC4)cn3)nc2n(C2CCCC2)c1=O + CC(Nc1ncnc2nc[nH]c12)c1cc2cccc(Cl)c2c(=O)n1-c1ccccc1

>  <test_readout>
pIC50

>  <result>
< 7.00

$$$$
>  <molecule>
CC(C)NCC(C(=O)N1CCN(c2ncnc3c2C(C)CC3O)CC1)c1ccc(Cl)cc1 (stereo unspecified) + COc1c(OCCCN2CCOCC2)ccc2c3n(c(=NC(=O)c4cnc(N)nc4)nc12)CCN3

>  <test_readout>
pIC50

>  <result>
> 7.50

$$$$
>  <molecule>
CNC(=O)c1ccc(N2C(=S)N(c3ccc(C#N)c(C(F)(F)F)c3)C(=O)C2(C)C)cc1F + CC(Nc1ncnc2nc[nH]c12)c1cc2cccc(Cl)c2c(=O)n1-c1ccccc1

>  <test_readout>
pIC50

>  <result>
< 5.00

$$$$
>  <molecule>
Cn1nccc1Nc1nccc(-c2ccn(C(CO)c3ccc(Cl)c(F)c3)c(=O)c2)n1 (stereo unspecified) + COc1c(OCCCN2CCOCC2)ccc2c3n(c(=NC(=O)c4cnc(N)nc4)nc12)CCN3

>  <test_readout>
pIC50

>  <result>
> 7.50

$$$$
>  <molecule>
CC1(C)CCC(Nc2ncc(C(F)(F)F)c(-c3c[nH]c4c(P(C)(C)=O)c(C#N)ccc34)n2)CN1 (stereo unspecified) + Cc1nc(NC(=O)N2CCCC2C(N)=O)sc1-c1ccnc(C(C)(C)C(F)(F)F)c1

>  <test_readout>
pIC50

>  <result>
> 7.50

$$$$
>  <molecule>
CC1(C)CCC(Nc2ncc(C(F)(F)F)c(-c3c[nH]c4c(P(C)(C)=O)c(C#N)ccc34)n2)CN1 (stereo unspecified) + COc1c(OCCCN2CCOCC2)ccc2c3n(c(=NC(=O)c4cnc(N)nc4)nc12)CCN3

>  <test_readout>
pIC50

>  <result>
> 7.50

$$$$
>  <molecule>
C[C@@H](NC(=O)c1ncnc(N)c1Cl)c1ncc(C(=O)Nc2cc(C(F)(F)F)c(Cl)cn2)s1 + Cc1nc(NC(=O)N2CCCC2C(N)=O)sc1-c1ccnc(C(C)(C)C(F)(F)F)c1

>  <test_readout>
pIC50

>  <result>
< 5.00

$$$$
>  <molecule>
CCCS(=O)(=O)Nc1ccc(F)c(C(=O)c2c[nH]c3ncc(-c4ccc(Cl)cc4)cc23)c1F + COc1c(OCCCN2CCOCC2)ccc2c3n(c(=NC(=O)c4cnc(N)nc4)nc12)CCN3

>  <test_readout>
pIC50

>  <result>
7.50

$$$$
>  <molecule>
CC(C)NCC(C(=O)N1CCN(c2ncnc3c2C(C)CC3O)CC1)c1ccc(Cl)cc1 (stereo unspecified) + Cc1nc(NC(=O)N2CCCC2C(N)=O)sc1-c1ccnc(C(C)(C)C(F)(F)F)c1

>  <test_readout>
pIC50

>  <result>
6.57

$$$$
>  <molecule>
CC1(C)CCC(Nc2ncc(C(F)(F)F)c(-c3c[nH]c4c(P(C)(C)=O)c(C#N)ccc34)n2)CN1 (stereo unspecified) + CC(Nc1ccc2c(c1)OCCn1cc(N3C(=O)OCC3C(F)F)nc1-2)C(N)=O

>  <test_readout>
pIC50

>  <result>
> 7.50

$$$$
>  <molecule>
Cn1ncnc1[C@H]1c2n[nH]c(=O)c3cc(F)cc(c23)N[C@@H]1c1ccc(F)cc1 + CC(Nc1ccc2c(c1)OCCn1cc(N3C(=O)OCC3C(F)F)nc1-2)C(N)=O

>  <test_readout>
pIC50

>  <result>
< 7.00

$$$$
>  <molecule>
CC(Cn1ccc(-c2ccc(C#N)c(Cl)c2)n1)NC(=O)c1cc(C(C)O)[nH]n1 (stereo unspecified) + Cc1nc(NC(=O)N2CCCC2C(N)=O)sc1-c1ccnc(C(C)(C)C(F)(F)F)c1

>  <test_readout>
pIC50

>  <result>
< 5.00

$$$$
>  <molecule>
CC(C)NCC(C(=O)N1CCN(c2ncnc3c2C(C)CC3O)CC1)c1ccc(Cl)cc1 (stereo unspecified) + CC(Nc1ccc2c(c1)OCCn1cc(N3C(=O)OCC3C(F)F)nc1-2)C(N)=O

>  <test_readout>
pIC50

>  <result>
6.83

$$$$
>  <molecule>
Cn1ncc(Cl)c1-c1cc(C(=O)NC(CN)Cc2cccc(F)c2)sc1Cl (stereo unspecified) + COc1c(OCCCN2CCOCC2)ccc2c3n(c(=NC(=O)c4cnc(N)nc4)nc12)CCN3

>  <test_readout>
pIC50

>  <result>
> 7.50

$$$$

###

Catalogue of viability, T/C readings, one per entry.
# System: 997726-040-R-J2-PDC tumor spheroids, viability
# protocol: Anticancer human tumor 997726-040-R-J2-PDC cell line growth inhibition [PI3K];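 also: spheroids exposed to compounds for seven days before readout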
# condition_notes: second compound 1 µM; first compound 0.1 µM; stronger effect = lower value; spheroids with HUVEC and MSC
# Text: Combinatorial screen of targeted agents with the PI3K inhibitors inavolisib, alpelisib, duvelisib, and copanlisib in multi-cell type tumor spheroids A high-throughput screen of multi-cell type tumor spheroids was designed to identify active combinations of targeted small molecules and PI3K pathway inhibitors. […] Compounds. […] If the clinical Cmax for an agent had not been determined, the highest concentration tested was 10 microM. […]

>  <compound>
C[C@@H](NC(=O)c1ncnc(N)c1Cl)c1ncc(C(=O)Nc2cc(C(F)(F)F)c(Cl)cn2)s1 + Cc1nc(NC(=O)N2CCCC2C(N)=O)sc1-c1ccnc(C(C)(C)C(F)(F)F)c1

>  <viability, T/C>
49.5%

$$$$
>  <compound>
CC(Cn1ccc(-c2ccc(C#N)c(Cl)c2)n1)NC(=O)c1cc(C(C)O)[nH]n1 (stereo not drawn) + Cc1nc(NC(=O)N2CCCC2C(N)=O)sc1-c1ccnc(C(C)(C)C(F)(F)F)c1

>  <viability, T/C>
44.7%

$$$$
>  <compound>
CNC(=O)c1ccc(N2C(=S)N(c3ccc(C#N)c(C(F)(F)F)c3)C(=O)C2(C)C)cc1F + COc1c(OCCCN2CCOCC2)ccc2c3n(c(=NC(=O)c4cnc(N)nc4)nc12)CCN3

>  <viability, T/C>
1.44%

$$$$

###

# System: 997726-040-R-J2-PDC tumor spheroids, viability
# protocol: Anticancer human tumor 997726-040-R-J2-PDC cell line growth inhibition [PI3K];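 also: spheroids exposed to compounds for seven days before readout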
# condition_notes: second compound 0.01 µM; first compound 0.1 µM; stronger effect = lower value; spheroids with HUVEC and MSC
Catalogue of viability, T/C readings, one per entry.

>  <compound>
CCN1CCN(Cc2ccc(Nc3ncc(F)c(-c4cc(F)c5nc(C)n(C(C)C)c5c4)n3)nc2)CC1 + COc1c(OCCCN2CCOCC2)ccc2c3n(c(=NC(=O)c4cnc(N)nc4)nc12)CCN3

>  <value_unit>
%

>  <viability, T/C>
41.3

$$$$
>  <compound>
CC(Cn1ccc(-c2ccc(C#N)c(Cl)c2)n1)NC(=O)c1cc(C(C)O)[nH]n1 (stereo not drawn) + CC(Nc1ccc2c(c1)OCCn1cc(N3C(=O)OCC3C(F)F)nc1-2)C(N)=O

>  <value_unit>
%

>  <viability, T/C>
81

$$$$
>  <compound>
CC(Cn1ccc(-c2ccc(C#N)c(Cl)c2)n1)NC(=O)c1cc(C(C)O)[nH]n1 (stereo not drawn) + COc1c(OCCCN2CCOCC2)ccc2c3n(c(=NC(=O)c4cnc(N)nc4)nc12)CCN3

>  <value_unit>
%

>  <viability, T/C>
60.4

$$$$

Numbers sourced from PubChem BioAssay AID1963964.
